Molecular target: T1, human LAG-3 on cells (HEK293-hLAG-3 stable cell line) (human, UniProt P18627 23-525)
T1 sequence: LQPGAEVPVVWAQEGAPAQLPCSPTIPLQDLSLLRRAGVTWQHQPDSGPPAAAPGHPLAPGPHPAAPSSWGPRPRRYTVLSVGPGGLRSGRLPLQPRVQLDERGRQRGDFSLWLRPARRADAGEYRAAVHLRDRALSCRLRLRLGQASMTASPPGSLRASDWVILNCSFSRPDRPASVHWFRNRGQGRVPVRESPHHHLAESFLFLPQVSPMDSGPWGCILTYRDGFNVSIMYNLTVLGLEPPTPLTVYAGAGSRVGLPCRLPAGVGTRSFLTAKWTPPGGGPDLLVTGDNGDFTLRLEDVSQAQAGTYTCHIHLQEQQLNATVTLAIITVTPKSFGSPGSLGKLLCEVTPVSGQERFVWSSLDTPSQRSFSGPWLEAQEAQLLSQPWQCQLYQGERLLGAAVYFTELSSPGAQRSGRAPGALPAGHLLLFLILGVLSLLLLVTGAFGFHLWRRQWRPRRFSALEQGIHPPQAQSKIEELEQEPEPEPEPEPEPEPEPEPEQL
Experiment: FACS, HEK293-hLAG-3, antibody 0 nM
measured-quantity: Mean fluorescence intensity
Answer with a bare number; do not write a unit.

Per the records, this binder ( 556F6B8-4 humanized antibody (antibody, V domains shown) VH: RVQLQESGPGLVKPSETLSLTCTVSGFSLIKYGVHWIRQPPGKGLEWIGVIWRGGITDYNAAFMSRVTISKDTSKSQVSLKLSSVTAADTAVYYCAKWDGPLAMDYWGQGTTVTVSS VL: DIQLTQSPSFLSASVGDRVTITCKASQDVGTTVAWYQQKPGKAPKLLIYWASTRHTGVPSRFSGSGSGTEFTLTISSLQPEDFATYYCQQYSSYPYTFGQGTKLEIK ) has Mean fluorescence intensity equal to 4
